Give inhibition for every item shown.
Molecular target: Tyrosine-protein phosphatase non-receptor type 5 (Homo sapiens)
Test: inhibition of STEP tyrosine phosphatase activity – biochemical, human, DiFMUP fluorescence (AID 400)
Details: recombinant PTPN5, DiFMUP fluorescence phosphatase assay; dose 200 (unit in doubt); enzyme 20 ng/mL; DTT 1 mM; hits give high values
Provide only the numeric value, understood in %.

Form entry - test system: Tyrosine-protein phosphatase non-receptor type 5 (Homo sapiens); read-out: inhibition; molecule: Cn1nc(/C=C/c2ccccc2)nc2c(=O)n(C)c(=O)nc1-2
70

Form entry - test system: Tyrosine-protein phosphatase non-receptor type 5 (Homo sapiens); read-out: inhibition; molecule: Cn1c(=O)[nH]c2c(c1=O)[n+](=O)c(/C=C/c1ccccc1)nn2C
52

Form entry - test system: Tyrosine-protein phosphatase non-receptor type 5 (Homo sapiens); read-out: inhibition; molecule: CCCCOC(OCCCC)(OCCCC)OCCCC
99.4

Form entry - test system: Tyrosine-protein phosphatase non-receptor type 5 (Homo sapiens); read-out: inhibition; molecule: O=P(O)(O)OP(=O)(O)O
31.6

Form entry - test system: Tyrosine-protein phosphatase non-receptor type 5 (Homo sapiens); read-out: inhibition; molecule: CCn1nc(/C=C/c2ccccc2)[n+](=O)c2c(=O)n(C)c(=O)[nH]c21
54

Form entry - test system: Tyrosine-protein phosphatase non-receptor type 5 (Homo sapiens); read-out: inhibition; molecule: CCn1nc(-c2ccc(Cl)cc2)nc2c(=O)n(C)c(=O)nc1-2
67.5

---

Target: Tyrosine-protein phosphatase non-receptor type 5 (Homo sapiens) (UniProt P54829)
Sequence (P54829 whole entry, looked up): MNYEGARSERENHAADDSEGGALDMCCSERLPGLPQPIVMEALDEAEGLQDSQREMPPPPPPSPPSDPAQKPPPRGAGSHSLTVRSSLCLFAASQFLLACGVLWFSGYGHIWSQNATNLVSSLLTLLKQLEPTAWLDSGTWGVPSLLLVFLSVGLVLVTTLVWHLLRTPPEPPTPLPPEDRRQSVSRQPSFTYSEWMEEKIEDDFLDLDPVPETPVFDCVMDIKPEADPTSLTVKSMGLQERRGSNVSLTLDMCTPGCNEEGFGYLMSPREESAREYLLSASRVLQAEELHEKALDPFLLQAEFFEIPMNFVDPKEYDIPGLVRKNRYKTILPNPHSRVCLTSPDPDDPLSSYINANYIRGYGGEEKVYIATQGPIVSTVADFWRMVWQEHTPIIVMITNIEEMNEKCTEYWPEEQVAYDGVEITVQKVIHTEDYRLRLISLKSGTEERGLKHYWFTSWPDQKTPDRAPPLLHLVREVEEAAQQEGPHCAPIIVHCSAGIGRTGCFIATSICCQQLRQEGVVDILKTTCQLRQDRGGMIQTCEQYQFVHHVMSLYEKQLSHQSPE
Assay: inhibition of STEP tyrosine phosphatase activity – biochemical, human, DiFMUP fluorescence (AID 400)
Settings: recombinant PTPN5, DiFMUP fluorescence phosphatase assay; at 50 µM; enzyme 87 ng/mL; DTT 5 mM; hits give high values
I'd appreciate it if you could label each record using inhibition and these ranges: lower level (below 40%), middle level (40% to below 70%), upper level (70% or more)

Form field 'band' for O=C(O)c1ccc(O)c(/C=N/N(CCO)C2=NS(=O)(=O)c3ccccc32)c1
middle level

Form field 'band' for F
upper level

Form field 'band' for CC(C)C(=O)Nc1ccc(O)cc1C(=O)O
lower level

Form field 'band' for Cc1ccc2nc(-c3cc(N=Cc4cc(C(=O)O)ccc4O)ccc3O)[nH]c2c1
middle level

Form field 'band' for O=C(O)c1ccc([O-])cn1.OO.OO.[K+].[K+].[O]=[V]
upper level

Form field 'band' for O=C([O-])c1ccccn1.OO.OO.[K+].[K+].[O]=[V]
upper level

Form field 'band' for OO.OO.[K+].[O]=[V].c1ccc(-c2ccccn2)nc1
middle level

Form field 'band' for COc1ccccc1C(=O)Nc1ccc(O)cc1C(=O)O
lower level

Form field 'band' for O=C(O)c1ccc(O)cn1.OO.[O]=[V]
middle level

Form field 'band' for CC(C)(C)NC(=O)CCN(/N=C/c1cc(C(=O)O)ccc1O)C1=NS(=O)(=O)c2ccccc21
lower level

Form field 'band' for O=C(O)c1ccc(O)c(C=Nc2cccc(-c3nc4ccccc4o3)c2)c1
lower level

Form field 'band' for O=C(O)c1ccc(O)c(C=Nc2ccc3oc(-c4cccc(Cl)c4Cl)nc3c2)c1
lower level

Form field 'band' for COc1ccc(-c2nc3cc(N=Cc4cc(C(=O)O)ccc4O)ccc3o2)cc1
upper level
